Recorded values, source PubChem BioAssay (NCI).

Test: NCI Yeast Anticancer Drug Screen. Data for the bub3 strain (AID 167)
Settings: S. cerevisiae bub3 mutant strain, at 50.0 µM
About 79,000 compounds went through this panel and 15% of them were active in at least one assay; those are over-represented in the sample as a whole. The source made the active and inactive calls. No stated cut-off is given here; in the data, active means growth inhibition above about 70%; inactive means the rest.
Classes used: active, inactive

{"columns": ["molecule", "categoryLabel"],
 "data": [
  ["C=CC1(NC(=O)c2ccccc2)CCC(C(C)(C)C)CC1 (configuration not stated)", "inactive"],
  ["CN=C1NS(=O)(=O)c2ccccc21", "inactive"],
  ["CCCCN1C(=O)C[C@H]2[C@@H]3CCc4cc(OCCN5CCCC5)ccc4[C@H]3CC[C@]2(C)C1=O", "active"],
  ["CN(C)CCN(C)N=Nc1c(-c2cccs2)n[nH]c1C(F)(F)F", "active"],
  ["COc1ccc(NC(=O)/C(=C/c2ccccc2)C(C)=O)cc1", "active"],
  ["CCCOC(=O)CCCC(=O)N(CC)CC", "inactive"],
  ["Clc1ccc(C2NC(c3ccccc3)c3c(ccc4ccccc34)O2)cc1 (configuration not stated)", "inactive"],
  ["CC(=O)c1c(O)c(C)c(O)c2c1OC1=CC(=O)c3c(C)noc3C12C (configuration not stated)", "inactive"],
  ["CC(C)(C)C(=O)OC12/C(=N/O)CCCCCC1c1ccccc12 (configuration not stated)", "active"],
  ["Nc1ccccc1/C=C/c1c[nH]c2ccccc12", "active"],
  ["O=S(=O)(Nc1cccc(C2=NCCN2)c1)c1ccc2c(S(=O)(=O)Nc3cccc(C4=NCCN4)c3)cccc2c1", "inactive"],
  ["FC(F)(F)c1ccccc1NC(=S)SCc1ccc2c(c1)OCO2", "active"],
  ["Nc1nc(-c2ccc(Cl)cc2)c(N=Nc2ccc(Br)cc2)s1", "active"],
  ["Cc1c(Cl)ccc2c1NC(=O)C2(O)CC(=O)c1ccc(Cl)cc1 (configuration not stated)", "active"],
  ["COc1ccc(-c2noc(=O)c3ccccc23)cc1", "inactive"],
  ["CC(=O)OCCC1=CCC2CC1C2(C)C (configuration not stated)", "inactive"],
  ["CN1C/C(=C\\c2ccccc2)C(=O)/C(=C/c2ccccc2)C1", "inactive"],
  ["O=C1CCC(Cc2ccc(I)cc2)C(=O)N1 (configuration not stated)", "inactive"],
  ["OC1CC2CCC(C1)N2CCCN1c2ccccc2Sc2ccc(Cl)cc21 (configuration not stated)", "active"],
  ["CC1=NC(=Cc2cccc(Cl)c2)C(=O)N1n1c(-c2ccccc2)nc2ccccc2c1=O", "active"],
  ["Cc1ccc(S(=O)(=O)N/N=C(\\C=C\\c2ccccc2)c2ccccc2)cc1", "inactive"],
  ["O=C1OC2(CCN(Cc3ccccc3)CC2)C(=O)N1c1cccc(Cl)c1", "inactive"],
  ["CCN(CC)CCOc1ccc(NC(=S)Nc2ccc(OCC(C)C)cc2)cc1", "active"],
  ["Nc1ccccc1Sc1ccc(C(F)(F)F)cc1[N+](=O)[O-]", "active"],
  ["CC(=O)Nc1ccc(O)c(=O)cc1", "inactive"],
  ["CS(=O)(=O)Nc1ccc(Nc2c3ccccc3nc3ccccc23)cc1", "inactive"],
  ["BrC(Br)([P+](c1ccccc1)(c1ccccc1)c1ccccc1)[P+](c1ccccc1)(c1ccccc1)c1ccccc1", "inactive"],
  ["CC1=CC(=O)C=C(Br)C1=O", "active"],
  ["CN(C)C(=O)/C=C/c1c[nH]c(=O)[nH]c1=O", "inactive"],
  ["O=C1C(=O)c2ccc(Br)cc2C(O)=C1C(c1ccccc1)c1ccccc1", "inactive"],
  ["Cn1nc2c(c(Cl)c1=O)Nc1ccccc1O2", "inactive"],
  ["CCCCCCCCN(CCCCCCCC)CC(O)c1cc2c(c3ccccc13)CCCC2 (configuration not stated)", "active"],
  ["c1ccc2c(c1)C[N+]1(CCCCCCC1)C2", "inactive"],
  ["Cc1cc2c(c(C(N)=O)c1C)-c1cccc(F)c1C2=O", "inactive"],
  ["CCN1C2=NCCN2S(=O)(=O)c2ccccc21", "inactive"],
  ["BrC(Br)=C1C(=C(Br)Br)C(Br)C1Br (configuration not stated)", "active"],
  ["COc1ccccc1/C=C1\\SC(=S)N(/C=C2\\C(=O)Oc3ccccc3C2=O)C1=O", "inactive"],
  ["Cc1ccc(S(=O)(=O)N/N=C/Cc2ccccc2)cc1", "inactive"],
  ["[Fe+2].c1cc[cH-]c1.c1ccc(-c2ccc[cH-]2)cc1", "active"],
  ["COc1ccc(N=N/N=c2\\sc3cc(Cl)ccc3n2C)cc1", "inactive"],
  ["CCCCCCCCCCCCC1N=C(N)N2CCCC2=C1C(=O)OC (configuration not stated)", "active"],
  ["NS(=O)(=O)c1ccc(-n2cccc2)cc1", "inactive"],
  ["Fc1ccc(CSC(=S)Nc2ccc(F)cc2)cc1", "inactive"],
  ["Cc1cccc2c1C(=O)N(CC[P+](c1ccccc1)(c1ccccc1)c1ccccc1)C2=O", "active"],
  ["CCCCCC(Oc1ccc(Cl)cc1)C(=O)O (configuration not stated)", "active"],
  ["O=C(CC(O)(c1ccccc1)c1ccc(Cl)cc1)NC(=O)c1ccccc1O (configuration not stated)", "active"],
  ["Cc1c2c(c(C)c3c4c(oc13)CCCC4)C=NCC2", "inactive"]
]}
